# Binding affinity (OCTET) Kon values compiled below
molecular target: T1, AXLECDHis (extracellular domain of human AXL) (Homo sapiens, UniProt P30530); test: Binding affinity by Bio-Layer Interferometry (ForteBio OctetRED384); settings: 1:1 model, 30° C.
T1 construct: the extracellular domain (ECD) of human AXL (aa 1-447) with a C-terminal His tag (AXLECDHis); His tag (C); made in house; host or cells: HEK-293F
T1 sequence (P30530 26-447): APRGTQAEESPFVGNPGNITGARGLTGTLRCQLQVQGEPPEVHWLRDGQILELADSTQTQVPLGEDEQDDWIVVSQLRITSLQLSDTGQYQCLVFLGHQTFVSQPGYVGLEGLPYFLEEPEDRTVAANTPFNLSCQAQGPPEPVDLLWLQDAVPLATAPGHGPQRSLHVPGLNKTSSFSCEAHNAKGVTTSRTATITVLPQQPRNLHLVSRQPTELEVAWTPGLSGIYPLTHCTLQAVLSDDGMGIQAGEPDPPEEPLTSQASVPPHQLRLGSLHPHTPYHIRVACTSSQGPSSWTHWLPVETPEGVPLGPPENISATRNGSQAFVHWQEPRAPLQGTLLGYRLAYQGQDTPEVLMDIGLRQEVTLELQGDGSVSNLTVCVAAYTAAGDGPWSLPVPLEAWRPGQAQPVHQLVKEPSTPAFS
resultType: Binding affinity (OCTET) Kon

- IgG1-AXL-183-N52Q: point mutant of IgG1-AXL-183, VH SEQ ID NO:17, VL SEQ ID NO:18 (antibody, listed as Homo sapiens, V domains shown) VH: QVQLQQWGAGLLKPSETLSLTCAVYGGSFSGYYWSWIRQPPGKGLEWIGEIQQSGSTNYNPSLKSRVTISVDTSKNQFSLKLSSVTAADTSVYYCASGNWDHFFDYWGQGTLVTVSS VL: DIQMTQSPSSVSASVGDRVTITCRASQGISSWLAWYQHKPGKAPKLLIYATSSLQSGVTSRFSGSGSGTDFTLTISSLQPEDFATYYCQQAKSFPWTFGQGTKVEIK: 42000 M⁻¹ s⁻¹
- IgG1-AXL-733: AXL-specific human IgG1,κ antibody, VH SEQ ID NO:34, VL SEQ ID NO:35, FN1 domain binding (antibody, listed as Homo sapiens, V domains shown) VH: QVQLVESGGGVVQPGRSLRLSCAASGFSFSTYAMHWVRQAPGKGLEWVAVISYDGDNKYSADSVKGRFTISRDNSKNTLYLQMNSLRAEDTAVYYCARGRKLGIDAFDIWGQGTMVTVSS VL: AIQLTQSPSSLSASVGDRVTITCRASQGISSALAWYQQKPGKAPKLLIYDASSLESGVPSRFSGSGSGTDFTLTISGLQPEDFATYYCQQFNSYPFTFGPGTKVDIK: 160000 M⁻¹ s⁻¹
